TEST READOUT: melting point

Below are worked cases with known answers.
COMPOUND: Cc1ccc(Nc2cc(Cl)nc(N)n2)c(C)c1 [Compound 20]
TEST READOUT: melting point
VAL: 178 to 180 °C
--
COMPOUND: CCCCOc1ccc(Nc2cc(Cl)nc(N)n2)cc1 [Compound 8]
TEST READOUT: melting point
VAL: 180 to 182 °C
--
COMPOUND: CCCCCCCCOc1ccc(Nc2cc(Cl)nc(N)n2)cc1 [Compound 9]
TEST READOUT: melting point
VAL: 185 to 187 °C
--
COMPOUND: COc1cc(Nc2cc(Cl)nc(N)n2)ccc1C [Compound 6]
TEST READOUT: melting point
VAL: 245 to 247 °C
--
COMPOUND: Nc1nc(Cl)cc(Nc2ccc(Br)cc2)n1 [Compound 10]
TEST READOUT: melting point
VAL: 190 to 192 °C

Now for another entry.
Exam item: Quickly give me recorded melting point for Nc1nc(Cl)cc(Nc2ccccc2)n1 [Compound 1]
Marked response: 175 to 177 °C
